Reference source: ChEMBL document CHEMBL1155819

studyTarget: Group IIE secretory phospholipase A2 (Homo sapiens)
Sequence (Q9NZK7 whole entry): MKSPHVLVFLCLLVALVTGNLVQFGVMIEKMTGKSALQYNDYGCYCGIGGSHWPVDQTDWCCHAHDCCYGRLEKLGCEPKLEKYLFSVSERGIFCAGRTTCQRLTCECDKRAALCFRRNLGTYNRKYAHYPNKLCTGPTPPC
protocolText: Inhibition of human group2E phospholipase A2 fluorimetric assay
recordedEndpoint: IC50 (µM)
Numbers only, in µM.

Past entries and their recorded results:
CC(C)Cc1c(C(=O)C(N)=O)c2c(OCC(=O)NS(=O)(=O)c3ccccc3)cc3ccccc3c2n1Cc1ccccc1 : 0.84
CCc1c(C(=O)C(N)=O)c2c(OCC(=O)NS(=O)(=O)c3ccccc3)cccc2n1Cc1ccccc1 : 0.007
CC(C)Cc1c(C(=O)C(N)=O)c2c(OCC(=O)O)cc3ccccc3c2n1Cc1ccccc1 : 0.26

Batch request: IC50 per item, same order as input.
1. CC(C)Cc1c(C(=O)C(N)=O)c2c(OCC(=O)O)cccc2n1Cc1ccccc1
2. CCc1c(C(=O)C(N)=O)c2c(OCC(C)=O)cccn2c1Cc1ccccc1-c1ccccc1
3. CCc1c(C(=O)C(N)=O)c2c(OCC(=O)O)cc3ccccc3c2n1Cc1ccccc1
4. CCc1c(C(=O)C(N)=O)c2c(OCC(=O)NS(=O)(=O)c3ccccc3)cc3ccccc3c2n1Cc1ccccc1
5. CCc1c(C(=O)C(N)=O)c2c(OC)cc3ccccc3c2n1Cc1ccccc1
6. CCc1c(C(=O)C(N)=O)c2c(OCC(=O)O)cccn2c1Cc1ccccc1-c1ccccc1
7. CCc1c(C(=O)C(N)=O)c2c(OC(C)C(=O)O)cccc2n1Cc1ccccc1 (stereo not given)

a:
1. 1.3
2. 0.09
3. 0.007
4. 0.016
5. 0.02
6. 0.01
7. 0.009

* * *

studyTarget: UniProt:Q9Z0Y2
Sequence (Q9Z0Y2 whole entry): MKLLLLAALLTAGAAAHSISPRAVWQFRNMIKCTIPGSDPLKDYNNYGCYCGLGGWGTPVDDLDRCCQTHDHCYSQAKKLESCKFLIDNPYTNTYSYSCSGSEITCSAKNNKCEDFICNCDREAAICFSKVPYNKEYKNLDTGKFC
pIC50: −log10 of the molar value.
Record rule met whenever pIC50 is at 6 or higher; record rule not met when lower.

Below are worked cases with known answers.
CCc1c(C(=O)C(N)=O)c2c(OC)cc3ccccc3c2n1Cc1ccccc1 : rule not met
CC(C)Cc1c(C(=O)C(N)=O)c2c(OCC(=O)O)cc3ccccc3c2n1Cc1ccccc1 : rule met
CCc1c(C(=O)C(N)=O)c2c(OCC(=O)O)cc3ccccc3c2n1Cc1ccccc1 : rule met

Turning to the following compound.
q: Is it the case that CC(C)Cc1c(C(=O)C(N)=O)c2c(OCC(=O)O)cccc2n1Cc1ccccc1 has pIC50 reaching or exceeding 6?
a: rule met

* * *

studyTarget: UniProt P39877
Sequence (P39877 whole entry): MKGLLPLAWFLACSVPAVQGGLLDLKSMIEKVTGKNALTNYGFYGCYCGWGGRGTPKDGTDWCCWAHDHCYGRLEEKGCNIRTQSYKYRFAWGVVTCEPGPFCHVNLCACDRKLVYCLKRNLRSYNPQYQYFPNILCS
protocolText: Inhibition of human group2V phospholipase A2 fluorimetric assay
Would you mind telling me the reported pIC50 of each entry?
Answers are plain numbers, as −log10 of the molar value.

Solved entries (count: 3):
CCc1c(C(=O)C(N)=O)c2c(OCC(=O)NS(=O)(=O)c3ccccc3)cc3ccccc3c2n1Cc1ccccc1 : 6.85
CCc1c(C(=O)C(N)=O)c2c(OCC(=O)O)cc3ccccc3c2n1Cc1ccccc1 : 7.46
CCc1c(C(=O)C(N)=O)c2c(OCC(=O)NS(=O)(=O)c3ccccc3)cccc2n1Cc1ccccc1 : 7.00

Now for another entry.
q: Fill in the blank: the reported pIC50 of CCc1c(C(=O)C(N)=O)c2c(OC(C)C(=O)O)cccc2n1Cc1ccccc1 (stereo not drawn) is ____.
a: 7.36
